system_tested: T1, 4H568-bA
T1 chain: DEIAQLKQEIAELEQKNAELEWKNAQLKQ
measurement_notes: two-hybrid library CCNG1;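 note: natural log of median RNA to DNA barcode read ratio; higher means stronger binding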
Classify as follows. Reported interaction score greater than or equal to -1: t. Reported interaction score below: f.

Does DENAQLEQENAELKQKIAELKWEIAQLEQ [4H1257-bA] have a reported interaction score of at least -1?
f

Is the recorded value of interaction score equal to or greater than -1 for this binder? DEIAQLEQKIAELKQENAELEWEIAQLKQ [4H338-bA]
t

State whether the measured interaction score reaches -1, counting equality as reaching it, for DKIAQLKQEIAELKQKIAELKWENAQLEQ [4H2667-bA]
t

Exam item: decide whether the reported interaction score for DKNAQLEQKIAELEQENAELKWEIAQLKQ [4H3354-bA] is at least -1.
f

Could you tell me if the measured interaction score of DKNAQLKQKNAELEQKIAELEWEIAQLEQ [4H4001-bA] reaches -1 or more?
f

Kindly determine if interaction score recorded for DKNAQLKQKIAELEQEIAELKWKNAQLEQ [4H3855-bA] is above or exactly -1.
t

Is reported interaction score greater than or equal to -1 here: DENAQLEQKIAELKQENAELKWEIAQLEQ [4H1369-bA]
f

Exam item: decide whether the reported interaction score for DKNAQLEQEIAELKQKNAELEWKIAQLEQ [4H3189-bA] is at least -1.
f

Quick check: does DKIAQLKQEIAELEQKNAELKWEIAQLKQ [4H2618-bA] have interaction score greater than or equal to -1?
t

Record DKNAQLKQEIAELEQENAELEWKIAQLKQ [4H3606-bA] ; criterion: interaction score no lower than -1. Met?
t

Given the entry DEIAQLEQKIAELKQKNAELEWEIAQLKQ [4H370-bA] , answer whether its interaction score meets or surpasses -1.
t

API: above_or_equal(metric=interaction score, cutoff=-1) for item DENAQLEQKIAELEQKIAELKWKNAQLKQ [4H1328-bA]
t

Please tell me: is the binder DKNAQLEQEIAELEQKIAELEWKNAQLKQ [4H3112-bA] at or over -1 in terms of interaction score?
f

Say whether DENAQLEQENAELEQKIAELKWEIAQLEQ [4H1193-bA] shows interaction score of -1 or more.
f
